- Test system: SGC-7901
- method notes: cells
- condition info: Homo sapiens, SGC-7901, 48 h
- Description: Cytotoxicity against human SGC7901 cells after 48 hrs by MTT assay
// reported IC50 for each item listed
observable: IC50 (µM)

1) Cc1ncc([N+](=O)[O-])n1CCSc1nnc(-c2ccccc2Cl)o1 = 32.6
2) Cc1ncc([N+](=O)[O-])n1CCSc1nnc(-c2ccnc(N)c2)o1 = 30
3) Cc1ncc([N+](=O)[O-])n1CCSc1nnc(-c2ccncc2)o1 = 15.9
4) Cc1ncc([N+](=O)[O-])n1CCSc1nnc(-c2ccc(C(C)(C)C)cc2)o1 = 31.1
5) Cc1ncc([N+](=O)[O-])n1CCSc1nnc(-c2ccco2)o1 = 31.7
6) Cc1ncc([N+](=O)[O-])n1CCSc1nnc(-c2ccnc(Cl)c2)o1 = 32.3
7) Cc1ncc([N+](=O)[O-])n1CCSc1nnc(-c2ccc(Cl)cc2)o1 = 31.9
8) Cc1ccc(-c2nnc(SCCn3c([N+](=O)[O-])cnc3C)o2)c(O)c1 = 36.7
9) Cc1ncc([N+](=O)[O-])n1CCSc1nnc(-c2ccccc2)o1 = 30.1
10) Cc1ncc([N+](=O)[O-])n1CCSc1nnc(-c2ccc(N)cc2)o1 = 31.7
11) COc1ccc(-c2nnc(SCCn3c([N+](=O)[O-])cnc3C)o2)c(O)c1 = 11.7
12) CCOc1ccccc1-c1nnc(SCCn2c([N+](=O)[O-])cnc2C)o1 = 30.3
13) Cc1ncc([N+](=O)[O-])n1CCSc1nnc(-c2cccnc2)o1 = 31.6
14) Cc1ncc([N+](=O)[O-])n1CCSc1nnc(-c2ccc3c(c2)OCCO3)o1 = 9.2
15) Cc1ncc([N+](=O)[O-])n1CCSc1nnc(-c2ccccc2N)o1 = 35.1
16) O=c1[nH]cc(F)c(=O)[nH]1 = 28.9
17) Cc1ncc([N+](=O)[O-])n1CCSc1nnc(-c2cccs2)o1 = 30.8
18) Cc1cccc(-c2nnc(SCCn3c([N+](=O)[O-])cnc3C)o2)c1O = 35.9
19) Cc1ccccc1-c1nnc(SCCn2c([N+](=O)[O-])cnc2C)o1 = 32.3
20) COc1cc(-c2nnc(SCCn3c([N+](=O)[O-])cnc3C)o2)cc(OC)c1OC = 34.8
21) COc1ccccc1-c1nnc(SCCn2c([N+](=O)[O-])cnc2C)o1 = 30.5
22) Cc1ncc([N+](=O)[O-])n1CCSc1nnc(-c2ccccc2[N+](=O)[O-])o1 = 30
23) Cc1ncc([N+](=O)[O-])n1CCSc1nnc(-c2cnccc2N)o1 = 34.5
24) Cc1ncc([N+](=O)[O-])n1CCSc1nnc(-c2ccc(C(C)C)cc2)o1 = 13.8
25) Cc1ncc([N+](=O)[O-])n1CCSc1nnc(-c2cccc3ccccc23)o1 = 8.8
26) Cc1ncc([N+](=O)[O-])n1CCSc1nnc(-c2ccccn2)o1 = 30
27) COc1ccc(-c2nnc(SCCn3c([N+](=O)[O-])cnc3C)o2)cc1 = 10.2
28) CCOc1ccc(-c2nnc(SCCn3c([N+](=O)[O-])cnc3C)o2)cc1 = 14.1
29) Cc1ncc([N+](=O)[O-])n1CCSc1nnc(-c2ccccc2F)o1 = 33.7
30) Cc1ccc(-c2nnc(SCCn3c([N+](=O)[O-])cnc3C)o2)cc1 = 12.5
31) Cc1ncc([N+](=O)[O-])n1CCSc1nnc(-c2ccc(N(C)C)cc2)o1 = 32.8
32) Cc1ncc([N+](=O)[O-])n1CCSc1nnc(-c2ccc([N+](=O)[O-])cc2)o1 = 12.2
33) Cc1ncc([N+](=O)[O-])n1CCSc1nnc(-c2ccccc2O)o1 = 30.5
34) Cc1ncc([N+](=O)[O-])n1CCSc1nnc(-c2ccc(F)cc2)o1 = 5.3
35) Cc1ncc([N+](=O)[O-])n1CCSc1nnc(-c2ccc(N)nc2)o1 = 30.9
36) COc1cc(OC)cc(-c2nnc(SCCn3c([N+](=O)[O-])cnc3C)o2)c1 = 9.6
37) Cc1ncc([N+](=O)[O-])n1CCSc1nnc(-c2ccc3ccccc3c2)o1 = 30.7
38) Cc1nc(=O)c2cc(CN(C)c3ccc(C(=O)N[C@@H](CCC(=O)O)C(=O)O)s3)ccc2[nH]1 = 8.7

* * *

- Test system: Pseudomonas aeruginosa
- method notes: Antibacterial activity against Pseudomonas aeruginosa ATCC 27853 assessed as growth inhibition after 24 hrs by MTT assay
- Type: functional
- condition info: ATCC 27853, 24 h
observable: MIC (µg/mL)

1. Cc1ncc([N+](=O)[O-])n1CCSc1nnc(-c2cnccc2N)o1 = 12.5
2. Cc1nc(=O)c2cc(CN(C)c3ccc(C(=O)N[C@@H](CCC(=O)O)C(=O)O)s3)ccc2[nH]1 = 50
3. NC[C@H]1O[C@H](O[C@H]2[C@H](O)[C@@H](O[C@H]3O[C@H](CO)[C@@H](O)[C@H](N)[C@H]3O)[C@H](N)C[C@@H]2N)[C@H](O)[C@@H](O)[C@@H]1O = 3.13
4. Cc1ncc([N+](=O)[O-])n1CCSc1nnc(-c2ccccc2[N+](=O)[O-])o1 = 3.13
5. Cc1ncc([N+](=O)[O-])n1CCSc1nnc(-c2ccnc(N)c2)o1 = 6.25
